molecular target: monomeric streptavidin variant mSA2; assay: fluorescent binding assay, labeled mSA2 in PBS on monolayer; quadratic curve fit
Reported Metric: pKd
Reminder that pKd is minus the log10 of a molar concentration.

In plain terms, rcSso7d.SA monolayer (designed binder, EDC/NHS-activated protein coupled to an amine-functionalized silicon wafer, also called monomeric rcSso7d.SA; surface-immobilized rcSso7d.SA) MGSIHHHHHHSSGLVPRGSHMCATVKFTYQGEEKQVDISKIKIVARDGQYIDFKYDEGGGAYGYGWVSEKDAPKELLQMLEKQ has a documented pKd of 5.70
